Measured viability at 1 µM values are reported for all entries that follow.
System: MOLM-13
Assay: Cytotoxicity against human MOLM13 cells assessed as cell viability at 1 uM after 48 hrs by MTT assay
Assay type: functional
Conditions: MOLM-13, 48 h, read-out: Activity
Property Measured: viability at 1 µM

COc1ccc(C(=O)NC(=O)Nc2ccc3c(c2)NC(=O)/C3=C/c2ccccc2)cc1 : 73%
COc1ccc(C(=O)NC(=O)Nc2ccc3c(c2)NC(=O)/C3=C\c2[nH]c(C)c(-c3ccccc3)c2C)cc1 : 51%
COc1ccc(C(=O)NC(=O)Nc2cccc3c2NC(=O)/C3=C\c2ccc[nH]2)cc1 : 72%
COc1ccc(C(=O)NC(=O)Nc2ccc3c(c2)NC(=O)/C3=C/c2ccc(Cl)c(Cl)c2)cc1 : 69%
COc1ccc(C(=O)NC(=O)Nc2ccc3c(c2)NC(=O)/C3=C/c2ccncc2)cc1 : 65%

====

Test system: MOLM-13
Experiment: Cytotoxicity against human MOLM13 cells assessed as cell viability at 1 uM after 48 hrs by MTT assay
Assay type: functional
Details: MOLM-13, 48 h, read-out: Activity
Measured viability at 1 µM values are reported for all entries that follow.
Property Measured: viability at 1 µM (%)

COc1ccc(C(=O)NC(=O)Nc2ccc3c(c2)NC(=O)/C3=C/c2ccco2)cc1 : 62
COc1ccc(C(=O)NC(=O)Nc2ccc3c(c2)NC(=O)/C3=C/c2cccc(C(=O)O)c2)cc1 : 53
COc1ccc(C(=O)NC(=O)Nc2ccc3c(c2)NC(=O)/C3=C/c2ccccn2)cc1 : 62
COc1ccc(C(=O)NC(=O)Nc2ccc3c(c2)NC(=O)/C3=C\c2ccc(C(=O)O)[nH]2)cc1 : 55
COc1ccc(C(=O)NC(=O)Nc2ccc3c(c2)NC(=O)/C3=C/c2ccc(Cl)cc2)cc1 : 101

====

Experiment: AUC (0 to 24 hrs) in BALB/c mouse at 10 mg/kg, po
Type: ADME, organism-based
Design: time < 24 hr, dose 10 mg/kg, route oral
Conditions: plasma
Property Measured: AUC(0-t) at 24 h (ng·h/mL)

COc1ccc(C(=O)NC(=O)Nc2ccc3c(c2)NC(=O)/C3=C\c2[nH]c(C)c(C(=O)NCCN3CCCC3)c2C)c(F)c1 : 252

====

Experiment: Therapeutic index, ratio of LD50 for BALB/c AnN.Cg-Foxnlnu/CrlNarl mouse to ED50 for antitumor activity against human MOLM13 cells xenografted in BALB/c AnN.Cg-Foxnlnu/CrlNarl mouse
Format: cell-based, MOLM-13
Details: in vivo, read-out: Ratio LD50/ED50
Property Measured: selectivity ratio

COc1ccc(C(=O)NC(=O)Nc2ccc3c(c2)NC(=O)/C3=C\c2[nH]c(C)c(C(=O)NCCN3CCCC3)c2C)c(F)c1 : > 10

====

Measured viability at 1 µM values are reported for all entries that follow.
Tested on: THP-1
Test: Cytotoxicity against human THP1 cells assessed as cell viability at 1 uM after 48 hrs by MTT assay
Format: functional
Conditions: THP-1, 48 h, read-out: Activity
Property Measured: viability at 1 µM (%)

COc1ccc(C(=O)NC(=O)Nc2ccc3c(c2)NC(=O)/C3=C\c2[nH]c(C)c(-c3ccccc3)c2C)cc1 : 73
COc1ccc(C(=O)NC(=O)Nc2ccc3c(c2)NC(=O)/C3=C/c2ccc(Cl)cc2)cc1 : 83
COc1ccc(C(=O)NC(=O)Nc2ccc3c(c2)NC(=O)/C3=C/c2ccncc2)cc1 : 96
